Hey, just so you know, these numbers are from paper PMC5540273.

A collection of molecules and their measured %Inh
# System: FER;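 note: KINOMEscan kinase panel screen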
# conditionSet: concentration: 1 μM,replicates: in singlicate; n = 1

Here are 3 molecules together with their reported answers.
# molecule, %Inh
rows = [
    ("Cn1ccc2ncnc(Oc3ccc(NC(=O)Nc4cncc(C(F)(F)F)c4)c(Cl)c3)c21", "0%"),
    ("CCn1c(-c2nonc2N)nc2cncc(CNC3CCNCC3)c21.Cl", "2%"),
    ("CCOC(=O)N1CCC(n2cnc(-c3ccc(F)cc3)c2-c2ccnc(N)n2)CC1", "20%"),
]

Prompt line: Given the molecule CS(=O)(=O)c1cccc(CNc2nc(Nc3ccc4c(c3)[C@@H]3C[C@@H]4CNC3=O)ncc2C(F)(F)F)c1 , what is its reported %Inh?
Response line: 93.4%

Prompt line: # repeat for COc1cccc(OC)c1C(=O)Nc1cccc(-c2nn3ccccc3c2-c2ccnc(Nc3cccc(F)c3)n2)c1
Response line: 24%

Prompt line: # repeat for Cn1ccc2ncnc(Oc3ccc(NC(=O)Nc4cccc(C(F)(F)F)c4)c(Cl)c3)c21
Response line: 0%
